I'd appreciate it if you could supply stoichiometry N values for the items below.
# assaySystem: T1, cytochrome c (UniProt P99999 2-105)
# T1 construct: cytochrome c (Cc), a hemeprotein; Carries a heme group; the reduced form was used in ITC and NMR relaxation; 15N-labelled for the NMR titrations; Expression and purification are in the Supporting Information Appendix; also called Cc; hemeprotein Cc; source: details in the Supporting Information
# T1 sequence (P99999 2-105): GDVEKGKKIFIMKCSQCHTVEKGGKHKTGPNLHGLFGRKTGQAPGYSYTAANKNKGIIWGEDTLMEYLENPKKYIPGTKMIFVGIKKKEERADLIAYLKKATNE
# assayOverview: ITC; 1 mM peptide titrated onto 110 or 150 µM reduced Cc; 10 mM sodium phosphate pH 6.3; single binding-site model
# recordedConditions: both partners purified

binder	obsValue
EEERGQKRKREPEDEGEDDD (also called ANP32A peptide; NLS-containing peptide; source: synthetic peptide (Genecust, France)) [ANP32A_(230-249) peptide]	0.76
EEERGEKRKRETEDEGEDDD (also called double mutant; source: synthetic peptide (Genecust, France)) [ANP32A_(230-249) Q235E/P241T peptide]	0.77
EEGGKGEKRKRETDDEGEDD (also called ANP32B peptide; source: synthetic peptide (Genecust, France)) [ANP32B_(232-251) peptide]	1.2

Now, please, on to the next binder.
Incoming: Item EEERGQKRKRETEDEGEDDD (also called single mutant; source: synthetic peptide (Genecust, France)) [ANP32A_(230-249) P241T peptide] : provide stoichiometry N
Outgoing: 0.77
